Ref: patent US20040038855A1

Molecular target: human Histamine H1 receptor (Homo sapiens)
Construct: expressed in transfected cells
Sequence (P35367 whole entry): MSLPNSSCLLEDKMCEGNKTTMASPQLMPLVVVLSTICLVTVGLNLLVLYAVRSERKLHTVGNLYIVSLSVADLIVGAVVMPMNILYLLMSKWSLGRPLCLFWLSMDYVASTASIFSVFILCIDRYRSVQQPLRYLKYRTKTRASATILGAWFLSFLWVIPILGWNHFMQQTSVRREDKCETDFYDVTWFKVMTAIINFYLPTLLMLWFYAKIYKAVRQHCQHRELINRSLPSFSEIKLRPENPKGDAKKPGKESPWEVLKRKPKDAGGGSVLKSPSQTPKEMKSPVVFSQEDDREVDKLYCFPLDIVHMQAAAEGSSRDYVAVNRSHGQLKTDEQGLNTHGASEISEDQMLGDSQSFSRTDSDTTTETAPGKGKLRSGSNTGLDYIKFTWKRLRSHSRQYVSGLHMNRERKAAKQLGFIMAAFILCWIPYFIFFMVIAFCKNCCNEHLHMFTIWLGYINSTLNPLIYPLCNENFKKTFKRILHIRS
Test: Binding affinity at the human histamine H1 receptor
pKi: −log10 of the molar value. Where a name gives a salt, the structure may show the parent alone.
// reported pKi for each item listed

{"MOLECULE": "COC(=O)C1=C(C)NC(=O)N(C(=O)NCCCN2CCC3(CC2)OCc2ccccc23)C1c1ccc2nonc2c1 (single isomer, unassigned) [Example 18, HYDROCHLORIDE]", "pKi": 7.51}
{"MOLECULE": "COC(=O)C1=C(C)NC(=O)N(C(=O)NCCCN2CCC3(CC2)OCc2ccccc23)C1c1ccc(F)c(F)c1 (stereo not shown)", "pKi": 7.41}
{"MOLECULE": "CC(C)C(=O)Nc1cccc(C2CCN(CC[C@H](Oc3ccccc3)c3ccccc3)CC2)c1", "pKi": 7.41}
{"MOLECULE": "CC(C)C(=O)Nc1cccc(C2CCN(CC[C@@H](Oc3ccccc3)c3ccccc3)CC2)c1", "pKi": 7.49}

###

Recorded Ki, one value per entry.
Molecular target: human NPY1 receptor (Homo sapiens)
Construct: expressed in transfected cells
Sequence (P25929 1-384): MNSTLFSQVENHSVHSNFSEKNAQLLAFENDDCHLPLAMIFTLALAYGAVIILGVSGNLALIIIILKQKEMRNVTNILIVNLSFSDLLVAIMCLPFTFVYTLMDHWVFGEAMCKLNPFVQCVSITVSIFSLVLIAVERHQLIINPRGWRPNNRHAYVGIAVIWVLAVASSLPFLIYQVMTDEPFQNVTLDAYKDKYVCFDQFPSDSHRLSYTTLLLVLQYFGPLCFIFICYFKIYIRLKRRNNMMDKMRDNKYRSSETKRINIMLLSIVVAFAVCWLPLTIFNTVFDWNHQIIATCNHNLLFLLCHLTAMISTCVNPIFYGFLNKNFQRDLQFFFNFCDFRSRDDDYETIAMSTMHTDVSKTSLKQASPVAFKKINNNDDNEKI
Experiment: Binding affinity at the human NPY1 receptor
Counter-ions that a name gives are not always drawn.

{"MOLECULE": "COC(=O)C1=C(C)NC(=O)N(C(=O)NCCCN2CCC3(CC2)OCc2ccccc23)C1c1ccc(F)c(F)c1 (stereo not drawn)", "Ki": "27.1 µM"}
{"MOLECULE": "COC(=O)C1=C(C)NC(=O)N(C(=O)NCCCN2CCC3(CC2)OCc2ccccc23)C1c1ccc2nonc2c1 (single isomer, unassigned) [Example 18, HYDROCHLORIDE]", "Ki": "> 50 µM"}
{"MOLECULE": "O=C(CCCN1CCC(O)(c2ccc(Cl)cc2)CC1)c1ccc(Cl)cc1", "Ki": "> 50 µM"}

###

Reported Ki values for a set of molecules
Target: human Dopamine D2 receptor (Homo sapiens)
Construct: purchased BioSignal, Inc. (Montreal, Canada)
Sequence (P14416 whole entry): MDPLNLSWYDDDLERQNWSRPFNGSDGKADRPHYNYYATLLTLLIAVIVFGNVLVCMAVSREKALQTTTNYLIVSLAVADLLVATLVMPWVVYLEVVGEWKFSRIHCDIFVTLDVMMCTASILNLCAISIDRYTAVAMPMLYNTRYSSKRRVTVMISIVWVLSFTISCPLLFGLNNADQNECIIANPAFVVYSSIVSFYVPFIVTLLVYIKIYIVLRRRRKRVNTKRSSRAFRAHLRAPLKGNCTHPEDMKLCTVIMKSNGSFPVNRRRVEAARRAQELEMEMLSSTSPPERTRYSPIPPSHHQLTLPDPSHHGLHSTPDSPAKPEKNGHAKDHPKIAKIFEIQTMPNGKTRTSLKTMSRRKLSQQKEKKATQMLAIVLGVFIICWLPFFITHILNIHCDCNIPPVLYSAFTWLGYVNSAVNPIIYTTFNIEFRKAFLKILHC
Test: Binding affinity at the human dopamine D2 receptor
Conditions: Table 3c; read-out: hD2 Ki
PROPERTY: Ki (nM)

{"MOLECULE": "COc1cccc(O[C@@H](CCN2CCC(c3cccc(NC(=O)C(C)C)c3)CC2)c2ccccc2)c1", "PROPERTY": "Ki", "VALUE_MEASURED": 281}
{"MOLECULE": "CC(C)C(=O)Nc1cccc(C2CCN(CC[C@H](Oc3ccc(Br)cc3)c3ccccc3)CC2)c1", "PROPERTY": "Ki", "VALUE_MEASURED": 52}
{"MOLECULE": "CC(=O)Nc1cccc(C2CCN(CCCNC(=O)N3C(=O)OCC3Cc3ccc(F)cc3)CC2)c1 (stereo not shown)", "PROPERTY": "Ki", "VALUE_MEASURED": 41500}
{"MOLECULE": "CC(C)C(=O)Nc1cccc(C2CCN(CC[C@@H](Oc3cc(F)ccc3F)c3ccccc3)CC2)c1", "PROPERTY": "Ki", "VALUE_MEASURED": 83}
{"MOLECULE": "COCC(=O)Nc1cccc(C2CCN(CCCNC(=O)N3C(=O)NC(COC)=C(C(=O)OC)[C@@H]3c3ccc(F)c(F)c3)CC2)c1", "PROPERTY": "Ki", "VALUE_MEASURED": 25100}
{"MOLECULE": "CC(C)C(=O)Nc1cccc(C2CCN(CCCC(=O)c3ccc(Cl)cc3)CC2)c1", "PROPERTY": "Ki", "VALUE_MEASURED": 862}
{"MOLECULE": "COc1cccc(CC(=O)Nc2cccc(C3CCN(CCCC(=O)c4ccc(Oc5ccccc5)cc4)CC3)c2)c1", "PROPERTY": "Ki", "VALUE_MEASURED": 503}
